# TEST TARGET: T1, CoV-NL63 Spike ectodomain (NL63-CoV, UniProt Q6Q1S2 19-1291)
# T1 sequence: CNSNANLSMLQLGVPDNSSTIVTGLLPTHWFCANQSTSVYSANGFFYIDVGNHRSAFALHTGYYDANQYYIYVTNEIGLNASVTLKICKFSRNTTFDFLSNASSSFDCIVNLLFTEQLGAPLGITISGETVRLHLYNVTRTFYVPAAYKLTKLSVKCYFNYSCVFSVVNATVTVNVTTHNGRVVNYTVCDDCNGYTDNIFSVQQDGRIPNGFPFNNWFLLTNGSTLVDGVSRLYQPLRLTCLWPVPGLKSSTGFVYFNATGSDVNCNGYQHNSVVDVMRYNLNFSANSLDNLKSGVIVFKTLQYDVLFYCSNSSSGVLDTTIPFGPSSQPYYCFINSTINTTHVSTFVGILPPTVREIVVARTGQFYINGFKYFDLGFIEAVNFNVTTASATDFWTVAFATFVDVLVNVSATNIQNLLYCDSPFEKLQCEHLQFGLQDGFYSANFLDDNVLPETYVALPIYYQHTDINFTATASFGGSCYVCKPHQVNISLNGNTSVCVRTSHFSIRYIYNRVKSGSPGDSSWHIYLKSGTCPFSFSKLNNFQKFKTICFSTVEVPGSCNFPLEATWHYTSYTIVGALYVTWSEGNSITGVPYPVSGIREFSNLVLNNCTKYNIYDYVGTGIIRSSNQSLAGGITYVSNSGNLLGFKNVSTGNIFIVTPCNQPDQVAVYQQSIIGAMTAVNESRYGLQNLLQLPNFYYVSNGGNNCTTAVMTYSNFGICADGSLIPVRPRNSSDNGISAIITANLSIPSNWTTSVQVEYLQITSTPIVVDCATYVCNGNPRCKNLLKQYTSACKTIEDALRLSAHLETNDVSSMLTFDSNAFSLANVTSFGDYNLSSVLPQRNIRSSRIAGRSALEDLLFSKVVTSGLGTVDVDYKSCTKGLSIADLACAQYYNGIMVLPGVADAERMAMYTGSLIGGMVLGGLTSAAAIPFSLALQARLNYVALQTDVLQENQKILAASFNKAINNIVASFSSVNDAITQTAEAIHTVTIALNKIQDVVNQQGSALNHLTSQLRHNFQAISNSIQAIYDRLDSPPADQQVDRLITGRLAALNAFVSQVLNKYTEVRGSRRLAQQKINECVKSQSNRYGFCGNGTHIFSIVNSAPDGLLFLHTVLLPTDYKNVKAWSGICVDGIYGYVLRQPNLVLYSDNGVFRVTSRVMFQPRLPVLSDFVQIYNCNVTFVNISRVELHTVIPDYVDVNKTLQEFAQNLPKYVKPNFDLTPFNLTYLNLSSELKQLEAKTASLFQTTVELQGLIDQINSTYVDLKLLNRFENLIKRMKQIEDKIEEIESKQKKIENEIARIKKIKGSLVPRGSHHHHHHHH
# ASSAY PROTOCOL: ELISA, coated spike ectodomain
ENDPOINT NAME: binding result

Q. Return the recorded binding result value; entry: Cv2.3194 (recombinant human IgG1) (antibody, V domains shown) VH: EVQLVESGGGLIQPGGSLRLSCAASGITVTSNYMSWVRQAPGKGLEWVSVIYPGGSTFYADSVKGRFTISRDNSKNTLYLQMNSLRAEDTAVYYCARDLVVYGMDVWGQGTTVTVSS VL: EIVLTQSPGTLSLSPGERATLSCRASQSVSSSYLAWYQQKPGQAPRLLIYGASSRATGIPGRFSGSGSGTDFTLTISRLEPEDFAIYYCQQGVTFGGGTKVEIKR
A. no binding

Q. Using the record for Cv2.3235 (recombinant human IgG1) (antibody, V domains shown) VH: EVQLVESGGGLIQPGGSLRLSCAASGFTVSRNYMSWVRQAPGKGLEWVSVIYSGGSTFYADSVKGRFTISRDNSKNTLYLQMNSLRAEDTAVYYCARDGDYYGMDVWGQGTTVTVSS VL: DIQMTQSPSFLSASVGDRVTITCRASQGISSFLAWYQQKPGKAPKLLIYGASTLQSGVTSRFSGSGSGTEFTLTISSLQPEDFATYYCQRLDSYPPITFGQGTRLEIKR , state its measured binding result.
A. no binding

Q. Give the reported value of binding result for this record: Cv2.1353 (recombinant human IgG1) (antibody, V domains shown) VH: EVQLVESGGGLVQPGGSLRLSCAASGVTVSSNYMNWVRQAPGKGLEWVSVIYSGGSTFYADSVKGRFIISRDNSKNTLYLQMNSLKTEDTAVYYCARDLGPMGFDIWGQGTMVTVSS VL: DIQMTQSPSFLSASVGDRVTITCRASQGISSYLAWYQQKPGKAPKLLIYAASTLQSGVPSRFSGSGSGTEFTLTISSLQPEDFATYYCQQLNSDPPVTFGPGTKVDIKR
A. no binding

Q. Specify measured binding result for Cv2.5213 (recombinant human IgG1) (antibody, V domains shown) VH: EVQLVESGGGLIQPGGSLRLSCAASGFTVSSNYMSWVRQAPGKGLEWVSLIYSGGSTYYADSVKGRFTISRDNSKNTLYLQMNSLRAEDTAVYYCARDLNYYGMDVWGQGATVTVSS VL: DIQMTQSPSSLSASVGDRVTITCRASQGISSYLAWYQQKPGKAPKLLIYAASTLQSGVPSRFSGSGSGTDFTLTISSLQPEDFATYYCQQLDSYSPFTFGPGTKVDIKR .
A. no binding
